Target: SAE (Homo sapiens (Human))
Assay: In vitro inhibitory activity assay against SAE (SUMO-2/3 immunofluorescence in HCT116 cells)
Type: cell-based
Conditions: 6 h incubation, class symbols, read-out: SUMO IF IC50
pIC50: −log10 of the molar value.
For each of the compounds below, state its pIC50.

Measured pIC50, NS(=O)(=O)OC[C@H]1C[C@@H](Nc2ncncc2C(=O)c2cc3c(s2)CCCC32NCCc3ccc(F)cc32)C[C@@H]1O (stereo partly drawn) : 6.70 to 7.30

Memo: `NS(=O)(=O)OC[C@H]1C[C@@H](Nc2ncncc2C(=O)c2cc3c(s2)CCC[C@@]32OCCc3ccc(F)cc32)C[C@@H]1O` , reported pIC50: < 6.70

The value of pIC50 measured for the compound NS(=O)(=O)OC[C@H]1C[C@@H](Nc2ncncc2C(=O)c2cc3c(s2)CCC32OCCc3ccc(F)cc32)C[C@@H]1O (stereo partly drawn) turned out to be 6.70 to 7.30

GET /value?item= `CC(C)N1Cc2sc(C(=O)c3cncnc3N[C@@H]3C[C@H](COS(N)(=O)=O)[C@@H](O)C3)cc2[C@@]2(C1)OCCc1ccc(Cl)cc12` &field=pIC50 returns < 6.70

pIC50 reading for `NS(=O)(=O)OC[C@H]1C[C@@H](Nc2ncncc2C(=O)c2cc3c(s2)CO[C@]32NCCc3ccc(Cl)cc32)C[C@@H]1O` : 6.70 to 7.30

Summary for this compound, NS(=O)(=O)OC[C@H]1C[C@@H](Nc2ncncc2C(=O)c2cc3c(s2)CSCC32NCCc3ccccc32)C[C@@H]1O (stereo partly drawn) : pIC50 is < 6.70

====

Hi there, I'd appreciate the recorded IC50 for every entry that follows.
Biological target: SAE (Homo sapiens (Human), UniProt Q9UBT2)
Sequence (Q9UBT2 whole entry): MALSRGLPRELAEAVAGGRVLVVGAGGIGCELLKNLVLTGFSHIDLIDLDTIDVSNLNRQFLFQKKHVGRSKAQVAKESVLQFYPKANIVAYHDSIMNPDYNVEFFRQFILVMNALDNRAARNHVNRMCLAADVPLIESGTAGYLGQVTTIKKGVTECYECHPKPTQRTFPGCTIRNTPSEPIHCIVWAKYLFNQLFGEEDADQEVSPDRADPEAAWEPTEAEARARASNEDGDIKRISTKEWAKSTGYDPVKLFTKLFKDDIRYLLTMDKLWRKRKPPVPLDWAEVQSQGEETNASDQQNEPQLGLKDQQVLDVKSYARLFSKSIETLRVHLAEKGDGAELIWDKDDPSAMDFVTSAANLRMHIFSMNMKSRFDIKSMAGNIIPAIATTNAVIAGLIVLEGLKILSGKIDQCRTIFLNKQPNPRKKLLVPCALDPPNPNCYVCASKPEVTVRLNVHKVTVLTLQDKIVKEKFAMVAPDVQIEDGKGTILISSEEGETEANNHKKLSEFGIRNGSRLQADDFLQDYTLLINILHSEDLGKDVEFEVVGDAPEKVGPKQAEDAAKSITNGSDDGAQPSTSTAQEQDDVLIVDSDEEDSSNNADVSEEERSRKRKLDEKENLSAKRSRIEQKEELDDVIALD
Sequence (Q9UBE0 whole entry partner): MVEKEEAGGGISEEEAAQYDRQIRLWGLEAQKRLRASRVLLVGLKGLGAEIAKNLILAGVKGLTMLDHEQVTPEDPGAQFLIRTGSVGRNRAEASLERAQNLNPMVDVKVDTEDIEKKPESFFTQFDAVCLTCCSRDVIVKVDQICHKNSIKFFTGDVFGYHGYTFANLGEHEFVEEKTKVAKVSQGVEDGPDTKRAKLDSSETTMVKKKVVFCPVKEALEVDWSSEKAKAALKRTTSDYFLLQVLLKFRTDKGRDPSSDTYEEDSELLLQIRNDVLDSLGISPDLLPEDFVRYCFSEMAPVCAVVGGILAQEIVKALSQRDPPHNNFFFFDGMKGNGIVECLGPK
Test: In vitro inhibitory activity assay against SAE (SUMO-2/3 immunofluorescence in HCT116 cells)
Format: cell-based
Details: 6 h incubation, class symbols, read-out: SUMO IF IC50

GET /value?item= `[2H]C1([2H])Cc2ccc(Cl)cc2[C@@]2(C=Cc3sc(C(=O)c4cncnc4N[C@@H]4C[C@H](COS(N)(=O)=O)[C@@H](O)C4)cc32)N1` &field=IC50 returns ≤ 50 nM

The recorded IC50 for entry NS(=O)(=O)OC[C@H]1C[C@@H](Nc2ncncc2C(=O)c2nc3c(s2)CSCC32NCCc3ccc(Cl)cc32)C[C@@H]1O (stereo partly drawn) equals > 200 nM

IC50 recorded for this molecule, COc1cc2c(cc1Cl)C1(CCc3sc(C(=O)c4cncnc4N[C@@H]4C[C@H](COS(N)(=O)=O)[C@@H](O)C4)cc31)NCC2 (stereo partly drawn) , is 50 to 200 nM

# IC50 of `C#Cc1ccc2c(c1)[C@@]1(CCCc3sc(C(=O)c4cncnc4N[C@@H]4C[C@H](COS(N)(=O)=O)[C@@H](O)C4)cc31)NCC2` = 50 to 200 nM

Per the record, NS(=O)(=O)OC[C@H]1C[C@@H](Nc2ncncc2C(=O)c2cc3c(s2)CCC32OCCc3ccccc32)C[C@@H]1O (stereo partly drawn) has IC50 of > 200 nM

Short answer for `NS(=O)(=O)OC[C@H]1C[C@@H](Nc2ncncc2C(=O)c2cc3c(s2)C(F)(F)C[C@@]32NCCc3ccc(Cl)cc32)C[C@@H]1O` : IC50 was > 200 nM

Reported IC50 of `N#Cc1ccc2c(c1)[C@]1(CCc3sc(C(=O)c4cncnc4N[C@@H]4C[C@H](COS(N)(=O)=O)[C@@H](O)C4)cc31)OCC2` : > 200 nM

GET /value?item= `NS(=O)(=O)OC[C@H]1C[C@@H](Nc2ncncc2C(=O)c2cc3c(s2)COC[C@]32NCCc3ccccc32)C[C@@H]1O` &field=IC50 returns 50 to 200 nM

Looking up `NS(=O)(=O)OC[C@H]1C[C@@H](Nc2ncncc2C(=O)c2cc3c(s2)CCC[C@@]32OCCc3ccccc32)C[C@@H]1O` , I found its IC50 recorded as > 200 nM

Entry under test: `Cc1ccc2c(c1)[C@@]1(CCCc3sc(C(=O)c4cncnc4N[C@@H]4C[C@H](COS(N)(=O)=O)[C@@H](O)C4)cc31)NCC2` . Its IC50 was 50 to 200 nM

`NS(=O)(=O)OC[C@H]1C[C@@H](Nc2ncncc2C(=O)c2cc3c(s2)CCC[C@]32NCCc3ccc(Cl)nc32)C[C@@H]1O` has a reported IC50 of ≤ 50 nM

In plain terms, `NS(=O)(=O)OC[C@H]1C[C@@H](Nc2ncncc2C(=O)c2cc3c(s2)COC[C@@]32NCCc3ccc(Cl)c(F)c32)C[C@@H]1O` has a documented IC50 of > 200 nM

Per the records, this molecule ( NS(=O)(=O)OC[C@H]1C[C@@H](Nc2ncncc2C(=O)c2cc3c(s2)CSCC32NCCc3cnc(Cl)cc32)C[C@@H]1O (stereo partly drawn) ) has IC50 equal to 50 to 200 nM

Field IC50 (entry `NS(=O)(=O)OC[C@H]1C[C@@H](Nc2ncncc2C(=O)c2cc3c(s2)CC[C@]32NCCc3ccncc32)C[C@@H]1O` ) reads 50 to 200 nM

Value of IC50 reported for the molecule `CN1CCc2ccc(Cl)cc2[C@@]12CCCc1sc(C(=O)c3cncnc3N[C@@H]3C[C@H](COS(N)(=O)=O)[C@@H](O)C3)cc12` is 50 to 200 nM

Quick note, IC50 for `NS(=O)(=O)OC[C@H]1C[C@@H](Nc2ncncc2C(=O)c2cc3c(s2)CCC[C@]32NCCc3ccc(C(F)(F)F)cc32)C[C@@H]1O` landed at 50 to 200 nM

Lab note: NS(=O)(=O)OC[C@H]1C[C@@H](Nc2ncncc2C(=O)c2cc3c(s2)C=CCC32NCCc3ccc(Cl)cc32)C[C@@H]1O (stereo partly drawn) gave IC50 of ≤ 50 nM

Memo: `NS(=O)(=O)OC[C@H]1C[C@@H](Nc2ncncc2C(=O)c2cc3c(s2)CC[C@]32OCCc3ccccc32)C[C@@H]1O` , reported IC50: 50 to 200 nM

# IC50 of CN1Cc2sc(C(=O)c3cncnc3N[C@@H]3C[C@H](COS(N)(=O)=O)[C@@H](O)C3)cc2C2(C1)OCCc1ccc(F)cc12 (stereo partly drawn) = 50 to 200 nM

// IC50 value for `NS(=O)(=O)OC[C@H]1C[C@@H](Nc2ncncc2C(=O)c2cc3c(s2)CNC[C@@]32NCCc3ccc(Cl)cc32)C[C@@H]1O` : > 200 nM

// IC50 lookup, molecule = `NS(=O)(=O)OC[C@H]1C[C@@H](Nc2ncncc2C(=O)c2cc3c(s2)CC[C@]32NCCc3cc(Cl)c(Cl)cc32)C[C@@H]1O` , result: ≤ 50 nM

get_value(item= NS(=O)(=O)OC[C@H]1C[C@@H](Nc2ncncc2C(=O)c2cc3c(s2)C=CC32NCCc3ccc(F)cc32)C[C@@H]1O (stereo partly drawn) , readout=IC50) returns 50 to 200 nM

Consider `NS(=O)(=O)OC[C@H]1C[C@@H](Nc2ncncc2C(=O)c2cc3c(s2)CSC[C@@]32NCCc3cnc(Cl)cc32)C[C@@H]1O` . Its measured IC50 is > 200 nM

# IC50 of `NS(=O)(=O)OC[C@H]1C[C@@H](Nc2ncncc2C(=O)c2cc3c(s2)CSC[C@]32NCCc3cnc(Cl)cc32)C[C@@H]1O` = ≤ 50 nM

Values were extracted from patent US20260035382A1.
